// data source = ChEMBL document CHEMBL1138066

Recorded IC50 by entry
# Test system: KB
# ASSAY_NAME: Cytotoxicity against human KB cell line by clonogenic plating efficiency assay after 72 hrs
# Assay type: functional, cell-based
Quick reminder: number only, in nM, skip the unit.

Query :: Provide only the value of recorded IC50 for COc1cc2cc(c1Cl)N(C)C(=O)CC(OC(=O)[C@H](C)N(C)C(=O)CCC(C)(C)SSC)C1(C)OC1C(C)C1CC(O)(NC(=O)O1)C(OC)/C=C/C=C(\C)C2 (stereo partly specified)
Result :: 0.0011

Query :: Give the value of IC50 reported for the following: COc1cc2cc(c1Cl)N(C)C(=O)CC(OC(=O)[C@H](C)N(C)C(=O)CCS)C1(C)OC1C(C)C1CC(O)(NC(=O)O1)C(OC)/C=C/C=C(\C)C2 (stereo partly specified)
Result :: 1.1

Query :: For the molecule COc1cc2cc(c1Cl)N(C)C(=O)CC(OC(=O)[C@@H](C)N(C)C(=O)CCC(C)SSC)C1(C)OC1C(C)C1CC(O)(NC(=O)O1)C(OC)/C=C/C=C(\C)C2 (mixture of isomers) , report IC50.
Result :: 1.2

Query :: # return recorded IC50 for input COc1cc2cc(c1Cl)N(C)C(=O)CC(OC(=O)[C@H](C)N(C)C(=O)CCSSC(C)CCC(=O)O)C1(C)OC1C(C)C1CC(O)(NC(=O)O1)C(OC)/C=C/C=C(\C)C2 (stereo partly specified)
Result :: 1.8

Query :: Identify IC50 associated with the molecule COc1cc2cc(c1Cl)N(C)C(=O)CC(OC(=O)[C@H](C)N(C)C(=O)CCC(C)S)C1(C)OC1C(C)C1CC(O)(NC(=O)O1)C(OC)/C=C/C=C(\C)C2 (stereo partly specified)
Result :: 0.077

* * *

Recorded IC50, one value per entry.
# System: HCT-15
# ASSAY_NAME: Cytotoxicity against human HCT15 cell line by clonogenic plating efficiency assay after 72 hrs
# Type: cell-based
# CONDITIONS_USED: HCT-15, 72 h
// return numeric value only (unit: nM, not printed)

[
  {
    "COMPOUND": "COc1cc2cc(c1Cl)N(C)C(=O)CC(OC(=O)[C@H](C)N(C)C(=O)CCSSC)C1(C)OC1C(C)C1CC(O)(NC(=O)O1)C(OC)/C=C/C=C(\\C)C2 (some centres not stated)",
    "STUDY_SYSTEM": "HCT-15",
    "ASSAY_RESULT": 0.13
  }
]

Query :: # return recorded IC50 for input `COc1cc2cc(c1Cl)N(C)C(=O)C[C@H](OC(=O)[C@H](C)N(C)C(C)=O)[C@]1(C)O[C@H]1[C@H](C)[C@@H]1C[C@@](O)(NC(=O)O1)[C@H](OC)/C=C/C=C(\C)C2`
Result :: 0.75

* * *

# System: SW-620
# ASSAY_NAME: Cytotoxicity against human SW620 cell line by clonogenic plating efficiency assay after 24 hrs
# CONDITIONS_USED: SW-620, 24 h
MEASUREMENT_TYPE: IC50 (nM)
Give the value, in units of nM, as a plain number.

Query :: GET IC50 where system = SW-620 and item = COc1cc2cc(c1Cl)N(C)C(=O)CC(OC(=O)[C@H](C)N(C)C(=O)CCSSC)C1(C)OC1C(C)C1CC(O)(NC(=O)O1)C(OC)/C=C/C=C(\C)C2 (some centres not stated)
Result :: 0.04
